Source: ChEMBL document CHEMBL1909046

Molecular target: Sigma non-opioid intracellular receptor 1 (Homo sapiens)
Sequence (Q99720 whole entry): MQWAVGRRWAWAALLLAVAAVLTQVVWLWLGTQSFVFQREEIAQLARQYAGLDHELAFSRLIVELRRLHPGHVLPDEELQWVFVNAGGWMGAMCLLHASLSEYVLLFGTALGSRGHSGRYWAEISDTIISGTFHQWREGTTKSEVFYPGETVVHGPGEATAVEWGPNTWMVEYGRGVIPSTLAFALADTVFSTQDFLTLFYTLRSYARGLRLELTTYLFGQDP
Assay: DRUGMATRIX: Sigma1 radioligand binding (ligand: [3H] Haloperidol)
Assay type: cell membranes, Jurkat, Membrane
Details: jurkat; Not Active = under 50% inhibition at 10 µM
READOUT_TYPE: IC50

>>> result("CARBOXYMETHYLCELLULOSE")
"Not Active"
>>> result("COPPER(II) OXIDE")
"Not Active"
>>> result("LEAD(IV) ACETATE")
"Not Active"
>>> result("POVIDONE")
"Not Active"

Data request: Returns the measured IC50 for the input substance. Input: CHROMIC CHLORIDE
Data returned: Not Active
